# Tested on: SK-MEL-28 melanoma
# protocolDetails: NCI tumour cell line growth inhibition, 48 h; in the data active means GI50 below about 0.43 µM; inactive means the rest
A correct response names exactly one class from active, inactive

These solved cases illustrate the format of a correct answer.
> print(dat)
                                   compound       cat
1  CC[C@H](CC#N)OC(=O)N[C@@H](C)c1cccc(NC(=O)Nc2ccc(-c3cnco3)c(OC)c2)c1    active
2  CC(=O)O[C@@H]1CC2C(C)(C)CCCC2(C)C2=C1C(=O)C(C(C)C)=CC2=O (some centres undefined)  inactive
3        CCCCCCCCCCCC[n+]1ccc(CCCCCCCCC)cc1  inactive
4        O=C(CCl)N1c2ccccc2Sc2c1ccc1ccccc21  inactive
5  NC(C(=O)[O-])C(=O)[O-].NC1CCCCC1N.[Pt+4]  inactive

Any idea what this test logged for "CC(C)(C)c1ccc(S(=O)(=O)N[C@H]2CC[C@H]3[C@@H]4CCc5cc(OS(=O)(=O)O)ccc5[C@H]4CC[C@]23C)cc1" ?
inactive

Any idea what this test logged for "O=C1/C(=C/c2ccc(O)cc2)COc2ccc(-c3ccccc3)cc21" ?
inactive

Any idea what this test logged for "CC(=O)[O-].CC(=O)[O-].[NH2-].[Pt+2].c1ccc2cnccc2c1" ?
inactive

Any idea what this test logged for "COc1cc(-c2cn(-c3ccc(Cl)cc3)c(C)c2C(=O)C(F)(F)F)cc(OC)c1OC" ?
inactive
